Sourced from ChEMBL document CHEMBL1201862

- Test system: H4
- ASSAY_EXPLANATION: Luminescence Cell-Based Dose Response HTS to Identify Activators of 5'UTR Stem-Loop Driven Prion Protein mRNA Translation in H4 Neuroglioblastoma Cells. [Related pubchem assays: 1829 (Project Summary), 1814 (Primary HTS)]
- Type: functional
- CONDITION_DETAILS: Homo sapiens
Activity calls are given as the source filed them. No stated cut-off is given here; in the data, actives have a measured EC50 and inactives only a lower limit.

| COMPOUND | EC50 |
| --- | --- |
| COc1ccc(C2=NCN(c3ccc(C)cc3)C(S)=N2)cc1 | 7.4 µM (active) |
| O=C(c1cn(-c2ccc(Cl)c(Cl)c2)nn1)C1CC1 | > 60 µM (not active) |
| CCN1C(=O)C(=C2C=C(C)OC(C)=C2)C(=O)N(CC)C1=S | > 120 µM (not active) |
| Cc1nc2ccc(NC(=O)CCC3CCCC3)cc2s1 | 15.2 µM (active) |
| Cn1ncc(Oc2ccc([N+](=O)[O-])cc2)c(Cl)c1=O | > 120 µM (not active) |
| COc1cccc(NC(=O)NCCC2=CCCCC2)c1 | 0.324 µM (active) |
| CN(C(=O)COC(=O)c1nc(Cl)c(Cl)c(Cl)c1Cl)C1CCS(=O)(=O)C1 (configuration not stated) | > 120 µM (not active) |
